Biological target: T1, Cynomolgus Monkey VSIG4-L-His (cynomolgus monkey)
T1 construct: ECD with His tag; also called cyVSIG4-L; cyno VSIG4-L-His
T1 chain: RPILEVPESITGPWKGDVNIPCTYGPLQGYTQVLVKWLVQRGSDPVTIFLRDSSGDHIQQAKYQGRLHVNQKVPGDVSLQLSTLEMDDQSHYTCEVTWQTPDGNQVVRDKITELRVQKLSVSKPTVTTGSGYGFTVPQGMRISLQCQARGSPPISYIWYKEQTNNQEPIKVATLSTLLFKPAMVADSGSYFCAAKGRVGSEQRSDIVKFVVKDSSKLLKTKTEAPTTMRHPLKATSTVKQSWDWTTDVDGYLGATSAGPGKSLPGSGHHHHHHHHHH
Assay: BLI, IgG on AHC sensor, antigen 100 nM
KD relative to parental chimera overview

{"columns": ["binder", "KD relative to parental chimera"],
 "data": [
  ["h14C05.D humanized IgG4 (S228P) kappa (antibody, V domains shown) VH: QVQLVQSGSELKKPGASVKVSCKASGYTFTNYGMNWVRQAPGQGLEWMGSINTYTGEATYADGFTGRFVFSLDTSVNTAYLQISSLKAEDTAVYYCARGDYYGRGTWFAYWGQGTLVTVSS VL: ETVVTQSPATLSLSPGERATLSCRASQDVSTAVAWYQQKPGQAPRLLIYSASYRYPGIPARFSGSGSGTDFTLTISSLEPEDFAVYYCQQDYSSPWTFGGGTKLEIKR", "0.5 fold"],
  ["h12A12.A humanized IgG4 (S228P) kappa (antibody, V domains shown) VH: QVQMVQSGAEVKKPGASVKVSCKASGYTFTNYWMHWVRQAPGQGLEWMGYINPSTGYTDYNQKFQGRVTMTADKSTSTAYMELSSLRSEDTAVYYCIRGSDYYGRDYWGQGTTVTVSS VL: DIQMTQSPSSLSASVGDRVTITCQASQDISNYLNWYQQKPGKALKLLIYYTSRLHSGVPSRFSGSGSGTDYTFTISSLQPEDIATYFCRQGNTLPWTFGGGTKLEIKR", "1 fold"],
  ["h12A12.F humanized IgG4 (S228P) kappa (antibody, V domains shown) VH: QVQMVQSGSELKKPGASVKVSCKASGYTFTNYWMHWVRQAPGQGLEWIGYINPSTGYTDYNQGFTGRFVLSADKSSSTAYLQISSLKAEDTAVYYCIRGSDYYGRDYWGQGTTVTVSS VL: DIQMTQSPSSLSASVGDRVTITCQASQDISNYLNWYQQKPGKAPKLLIYYTSRLHSGVPSRFSGSGSGTDYTFTISSLQPEDIATYYCRQGNTLPWTFGGGTKLEIKR", "0.4 fold"]
]}
